measuredTarget: GTPase KRas (Homo sapiens, UniProt P01116, G12V)
Sequence (P01116 whole entry G12V): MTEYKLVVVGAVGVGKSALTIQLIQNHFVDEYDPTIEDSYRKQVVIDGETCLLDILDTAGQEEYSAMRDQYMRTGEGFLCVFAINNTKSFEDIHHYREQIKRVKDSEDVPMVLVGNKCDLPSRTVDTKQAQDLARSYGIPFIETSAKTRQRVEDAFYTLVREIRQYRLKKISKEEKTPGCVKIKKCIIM
experimentalDetails: Inhibition of recombinant HA-tagged K-Ras G12V mutant (unknown origin) assessed as disruption of interaction with GST-tagged Raf-RBD after overnight incubation by HTRF assay
metric: IC50 (µM)
Give a bare numeral; the unit µM is implied.

CC(C)[C@@H]1NC(=O)[C@@H](CC(N)=O)NC(=O)[C@H](CCCNC(=N)N)NC(=O)[C@H](CCCNC(=N)N)NC(=O)[C@H](Cc2ccc(F)cc2)NC(=O)[C@H](Cc2ccc(O)cc2)NC(=O)[C@H](CCC(N)=O)NC(=O)C[C@@H](CCc2ccccc2)NC(=O)[C@@H]2CCCCN2C(=O)C(=O)C(C)(C)COC1=O : 1.2
CCCC[C@H]1NC(=O)[C@@H](Cc2ccc3ccccc3c2)NC(=O)[C@@H](Cc2ccc3ccccc3c2)NC(=O)[C@@H](CCCCN)NC(=O)[C@H](CCCNC(=N)N)NC(=O)[C@H](Cc2ccc(F)cc2)NC(=O)[C@H](CCC(N)=O)NC(=O)C[C@@H](CCc2ccccc2)NC(=O)[C@@H]2CCCCN2C(=O)C(=O)C(C)(C)COC1=O : 10

Ask: // returns reported IC50 for input `CC1(C)COC(=O)[C@H](Cc2ccccc2)NC(=O)[C@H](CCCNC(=N)N)NC(=O)[C@H](Cc2ccc(O)cc2)NC(=O)[C@@H]2CCCN2C(=O)[C@H](Cc2ccc(O)cc2)NC(=O)[C@@H](Cc2ccccc2)NC(=O)[C@H](CCC(N)=O)NC(=O)C[C@@H](CCc2ccccc2)NC(=O)[C@@H]2CCCCN2C(=O)C1=O`
Reply: 10

* * *

measuredTarget: GTPase KRas (Homo sapiens, UniProt P01116, G12V)
experimentalDetails: Inhibition of recombinant HA-tagged K-Ras G12V mutant (unknown origin) assessed as disruption of interaction with GST-tagged Raf-RBD after overnight incubation by HTRF assay
Below: a set of entries, each annotated with reported pIC50.
Keep it numeric: pIC50 is minus log10 of the concentration in mol/L.

CC1(C)COC(=O)[C@H](Cc2ccccc2)NC(=O)[C@H](CCCNC(=N)N)NC(=O)CNC(=O)[C@H](Cc2ccc(O)cc2)NC(=O)[C@@H](Cc2ccc3ccccc3c2)NC(=O)[C@H](CCCN)NC(=O)[C@H](CCC(N)=O)NC(=O)C[C@@H](CCc2ccccc2)NC(=O)[C@@H]2CCCCN2C(=O)C1=O : 5.74

# ---- query compound ----
Ask: // returns reported pIC50 for input `CC(C)C[C@@H]1NC(=O)[C@@H](Cc2ccc3ccccc3c2)NC(=O)[C@H](CCCNC(=N)N)NC(=O)[C@@H](C(C)C)NC(=O)[C@H](CCCNC(=N)N)NC(=O)[C@H](C)NC(=O)[C@H](CCC(N)=O)NC(=O)C[C@@H](CCc2ccccc2)NC(=O)[C@@H]2CCCCN2C(=O)C(=O)C(C)(C)COC1=O`
Reply: 5.70

* * *

measuredTarget: GTPase KRas (Homo sapiens, UniProt P01116, G12V)
experimentalDetails: Inhibition of recombinant HA-tagged K-Ras G12V mutant (unknown origin) assessed as disruption of interaction with GST-tagged Raf-RBD after overnight incubation by HTRF assay
metric: IC50 (nM)
Give a bare numeral; the unit nM is implied.

CC1(C)COC(=O)[C@H](Cc2ccccc2)NC(=O)[C@H](CCCNC(=N)N)NC(=O)[C@@H](Cc2ccc3ccccc3c2)NC(=O)[C@H](CCCNC(=N)N)NC(=O)[C@@H](Cc2ccccc2)NC(=O)[C@H](CCCN=C(N)N)NC(=O)[C@H](CCC(N)=O)NC(=O)C[C@@H](CCc2ccccc2)NC(=O)[C@@H]2CCCCN2C(=O)C1=O : 1100
C[C@@H]1NC(=O)[C@H](Cc2ccc(O)cc2)NC(=O)[C@H](CCCNC(=N)N)NC(=O)[C@@H]([C@H](C)O)NC(=O)CNC(=O)[C@H](CCC(N)=O)NC(=O)C[C@@H](CCc2ccccc2)NC(=O)[C@@H]2CCCCN2C(=O)C(=O)C(C)(C)COC(=O)[C@H](Cc2ccccc2)NC1=O : 2300

Ask: // returns reported IC50 for input `CC(C)C[C@@H]1NC(=O)[C@H](CCC(=O)O)NC(=O)[C@H](c2ccccc2)NC(=O)[C@@H](Cc2ccccc2)NC(=O)[C@H](CCCN)NC(=O)[C@@H]2CCCN2C(=O)[C@H](CCC(N)=O)NC(=O)C[C@@H](CCc2ccccc2)NC(=O)[C@@H]2CCCCN2C(=O)C(=O)C(C)(C)COC1=O`
Reply: 10000
